Item-by-item account of melting point

COMPOUND | melting point
Cc1ccccc1-c1cc2cnc(NC3CCN(S(=O)(=O)C(C)C)CC3)nc2n(C)c1=O.Cl | 142 to 149 °C

Form field melting point, entry CC(=O)O[C@H]1CC[C@H](Nc2ncc3cc(-c4ccccc4Cl)c(=O)[nH]c3n2)CC1.Cl : > 300 °C

Form field melting point, entry Cl.Cn1c(=O)c(-c2ccccc2Cl)cc2cnc(NC3CCC(C(=O)O)CC3)nc21 (stereo not drawn) : 263.6 to 264.2 °C

Form field melting point, entry CN(C)S(=O)(=O)N[C@H]1CC[C@H](Nc2ncc3cc(-c4ccccc4Cl)c(=O)[nH]c3n2)CC1.Cl : 262.2 to 262.5 °C

Form field melting point, entry CC(C)S(=O)(=O)N1CCC(Nc2ncc3cc(-c4ccccc4F)c(=O)n(C)c3n2)CC1.Cl : 204 to 209 °C

Form field melting point, entry Cl.Cn1c(=O)c(-c2ccccc2Cl)cc2cnc(NC3CCN(S(=O)(=O)C(F)(F)F)CC3)nc21 : 134 to 140 °C

Form field melting point, entry Cl.O=c1[nH]c2nc(NCC3CCC(O)CC3)ncc2cc1-c1ccccc1Cl (stereo not drawn) : 205 to 213 °C

Form field melting point, entry COc1ccccc1-c1cc2cnc(NC3CCN(S(=O)(=O)C(C)C)CC3)nc2n(C)c1=O.Cl : 157 to 163.1 °C

Form field melting point, entry Cl.Cn1c(=O)c(-c2ccccc2F)cc2cnc(NC3CCN(S(=O)(=O)C(F)(F)F)CC3)nc21 : 213.5 to 221 °C

###

Item-by-item account of IC50
- TARGET SYSTEM: p38 MAP kinase (Homo sapiens, UniProt Q16539)
- Sequence (Q16539 whole entry): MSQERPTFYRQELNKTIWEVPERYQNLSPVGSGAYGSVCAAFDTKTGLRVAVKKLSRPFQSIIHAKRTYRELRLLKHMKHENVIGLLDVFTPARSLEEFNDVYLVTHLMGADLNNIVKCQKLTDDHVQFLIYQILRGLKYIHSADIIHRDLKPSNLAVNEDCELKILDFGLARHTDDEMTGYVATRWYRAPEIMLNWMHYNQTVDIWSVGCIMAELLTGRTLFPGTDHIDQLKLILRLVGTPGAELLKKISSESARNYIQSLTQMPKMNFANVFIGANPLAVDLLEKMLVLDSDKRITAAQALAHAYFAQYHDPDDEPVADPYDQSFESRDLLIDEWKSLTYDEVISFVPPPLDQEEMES
- ASSAY: in vitro inhibition of p-38 (MAP) kinase, transfer of γ-33P from ATP to Myelin Basic Protein
- CONDITION CONTEXT: phosphorylated recombinant p38 MAP kinase; MBP substrate, γ-33P-ATP; 30° C.
Quick reminder: number only, in nM, skip the unit.

As a guide, the following entries are already answered.
MOLECULE | RESULT VALUE
Cn1c(=O)c(-c2ccccc2Cl)cc2cnc(N[C@H]3CC[C@H](NS(C)(=O)=O)CC3)nc21 [compound 37] | 30.5
CCCS(=O)(=O)N1CCC(Nc2ncc3cc(-c4ccccc4C)c(=O)n(C)c3n2)CC1.Cl [Cpd 126] | 0.3
O=c1c(-c2ccccc2Cl)cc2cnc(N[C@H]3CC[C@H](O)CC3)nc2n1Cc1ccccc1 [Example 41] | 5.1
Cn1c(=O)c(-c2ccccc2Cl)cc2cnc(NC3CCN(CC#N)CC3)nc21 [compound 24] | 35.5
Cn1c(=O)c(-c2ccccc2Cl)cc2cnc(NC3CCN(C(N)=O)CC3)nc21 [compound 11] | 4.8

Form field IC50, entry Cn1c(=O)c(-c2ccccc2Cl)cc2cnc(NC3(CO)CCCC3)nc21 [Cpd 2] : 41.9

Form field IC50, entry Cn1c(=O)c(-c2ccccc2Cl)cc2cnc(N[C@H]3CC[C@H](N)CC3)nc21 [Example 38] : 6.2

Form field IC50, entry CCn1c(=O)c(-c2ccccc2Cl)cc2cnc(NC3CCOCC3)nc21.Cl [Cpd 136] : 8.2

###

Where a name gives a salt, the structure may show the parent alone.
Item-by-item account of melting point

As a guide, the following entries are already answered.
MOLECULE | melting point
Cl.Cn1c(=O)c(-c2ccccc2Cl)cc2cnc(NC3CCN(S(=O)(=O)CC(F)(F)F)CC3)nc21 | 215 to 219 °C
Cl.Cn1c(=O)c(-c2ccccc2F)cc2cnc(NC3CCN(S(=O)(=O)CC(F)(F)F)CC3)nc21 | 225.9 to 226.4 °C
CC(C)CNn1c(=O)c(-c2ccccc2Cl)cc2cnc(NC3CCOCC3)nc21.Cl | 111.3 to 117.5 °C
Cl.NC(=O)O[C@H]1CC[C@H](Nc2ncc3cc(-c4ccccc4Cl)c(=O)[nH]c3n2)CC1 | 291 to 293.5 °C
Cl.Cn1c(=O)c(-c2ccccc2Cl)cc2cnc(NCC3CCC(O)CC3)nc21 (centres unmarked) | 148 to 151.5 °C

Form field melting point, entry Cl.Cn1c(=O)c(-c2ccccc2Cl)cc2cnc(N[C@@H]3CCOC3)nc21 : 171.9 to 173 °C

Form field melting point, entry CCS(=O)(=O)N1CCC(Nc2ncc3cc(-c4ccccc4C)c(=O)n(C)c3n2)CC1.Cl : 218.5 to 219.3 °C

Form field melting point, entry CCS(=O)(=O)CCC(C)Nc1ncc2cc(-c3ccccc3Cl)c(=O)n(C)c2n1 (centres unmarked) (as salt: hydrochloride) [Example 102] : 160.1 to 167 °C
